- Test system: Voltage-gated potassium channel subunit beta-2 (Rattus norvegicus) (UniProt P62483)
- Sequence (P62483 whole entry, looked up): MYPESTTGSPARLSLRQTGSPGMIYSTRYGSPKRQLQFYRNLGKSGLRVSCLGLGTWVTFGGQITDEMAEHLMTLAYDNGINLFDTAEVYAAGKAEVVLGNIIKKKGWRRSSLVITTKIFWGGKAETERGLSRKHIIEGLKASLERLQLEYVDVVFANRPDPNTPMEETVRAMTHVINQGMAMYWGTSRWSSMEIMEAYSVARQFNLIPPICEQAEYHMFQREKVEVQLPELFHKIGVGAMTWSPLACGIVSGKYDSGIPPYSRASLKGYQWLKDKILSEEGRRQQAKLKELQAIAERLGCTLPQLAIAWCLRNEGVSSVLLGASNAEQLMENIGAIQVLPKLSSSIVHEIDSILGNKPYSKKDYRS
- Protocol notes: inhibitors of rat Kvbeta2 reductase activity – biochemical, NADPH fluorescence, primary screen (AID 622);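 further: slope of raw intensity against log time taken from 70 to 1610 s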
- Run conditions: recombinant KvBeta, 4-cyanobenzaldehyde reduction, at 10 µM, stronger effect = higher value
fluorescence slope vs -0.5: at or above is T, below is F.

>>> answer_label("O=C(NCc1nnc(SCC(=O)N2CCC(Cc3ccccc3)CC2)o1)c1ccccc1F")
"F"
>>> answer_label("COc1ccccc1NC(=O)NCCCN1CCN(c2cccc(Cl)c2)CC1")
"F"
>>> answer_label("CSc1nc(C)cc(Oc2ccc(=O)n(C)n2)n1")
"T"
>>> answer_label("O=C(C1CCCO1)N1CCN(Cc2nc3ccccc3c(=O)[nH]2)CC1 (centres undefined)")
"T"
>>> answer_label("Cc1c(NC(=O)C2(c3ccccc3)CCOCC2)c(=O)n(-c2ccccc2)n1C")
"T"
>>> answer_label("Cc1cc(=O)oc2c1ccc1oc(/C(=N/O)c3ccccc3)c(C)c12")
"T"
>>> answer_label("c1ccc2c(c1)nc(NCCN1CCOCC1)c1nncn12")
"F"
>>> answer_label("CCN1CCCC1CNC(=O)c1cc2c(=O)n(C)c3ccccc3c2n1C (centres undefined)")
"F"
>>> answer_label("O=S(=O)(c1ccc2c(c1)OCCO2)N1CCN(Cc2ccc3c(c2)OCO3)CC1")
"T"

====

- Protocol notes: TLR3 IRF3 reporter activation blockers – cell-based, poly I:C stimulus, luciferase, 10K MLSCN set, primary screen (AID 602277)
- Run conditions: HEK293-TLR3 RL24 IRF3 luciferase reporter, at 10 µM, stronger effect = higher value
Property: inhibition; scope: individual compounds
Outcome measure: inhibition (%)

>>> val("COc1cccc(C(=O)CN2CCC(NC(=O)NC3CCCCC3)CC2)c1")
-12.8
>>> val("Cc1ccccc1CN1CCN(CC(=O)NCc2ccccc2)C1=O")
24.6
>>> val("Cc1ccc2c(c1)nnn2C1CCN(C(=O)NC23CC4CC(CC(C4)C2)C3)CC1")
22.5
>>> val("Cc1ccc(N(CC(=O)NCC2CCCO2)S(C)(=O)=O)cc1Cl (centres undefined)")
12.4

====

- Protocol notes: inhibitors of TNFa-induced NFkB p65 translocation, primary screen, imaging, HUVEC, MLSMR starter and 10KST1 sets (AID 438);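 further: compound added about 3h40 before a 20 min TNFalpha stimulation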
- Run conditions: HUVEC TNFa-induced p65 nuclear translocation; measured here: nuclei count (cytotoxicity indicator), at 2.08 µM
cell count vs 400: at or above is Fulfilled, below is Not fulfilled.

>>> answer_label("Cc1cc(NS(=O)(=O)c2ccc(Nc3nc(-c4sc(N)nc4C)cs3)cc2)no1")
"Not fulfilled"
>>> answer_label("COc1ccc(C(=O)Nc2cccc(-c3nc4ncccc4o3)c2C)cc1OC")
"Fulfilled"
>>> answer_label("CC(=O)c1ccc(-c2nc3ccccc3n2C)o1")
"Not fulfilled"
>>> answer_label("C=CCn1c(SC(C)C(=O)NC2(C#N)CCCCC2)nnc1-c1ccc(OC)cc1 (centres undefined)")
"Fulfilled"
>>> answer_label("COc1cccc(Oc2cnc(N)nc2-c2ccc(OC)cc2O)c1")
"Fulfilled"
>>> answer_label("CCOC(=O)COc1ccc(C2NC(C(=O)O)CS2)cc1 (centres undefined)")
"Not fulfilled"

====

- Protocol notes: reduction of polyQ htt aggregates in cells – imaging, exon1htt(103Q)mCFP cells, high-content imaging, primary screen (AID 483);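 further: compound exposure lasted 3 days before fixation; percent of the per-plate median nuclei count of sample wells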
- Run conditions: exon1htt(103Q)mCFP cell line, aggregate imaging, at 2 µM; measured here: cell count, toxicity
Outcome measure: nuclei count (%)

>>> val("NC(=O)COC(=O)CNC(=O)c1ccc(Cl)cc1")
106
>>> val("CCOc1ccc(OCC)c(NC(=O)C2CCN(c3ncccn3)CC2)c1")
103
>>> val("COc1ccc(C(=O)Nc2nc(C)c(C(=O)N(C)C)s2)cc1OC")
102
>>> val("Cn1cccc1Cc1nnc(SCC(=O)NCC2CCCO2)n1-c1ccc(F)cc1 (stereo unspecified)")
95.9
>>> val("CCn1nc(CC(=O)Nc2nnc(CC(=O)N3CCCCC3)s2)c2ccccc2c1=O")
104
>>> val("CC(CCc1ccccc1)NCc1ccncc1 (stereo unspecified)")
109

====

Property: inhibition; scope: individual molecules
- Protocol notes: blockers of RIG-like receptor reporter activation – cell-based, Sendai virus stimulus, luciferase, 10K MLSCN set, TLR/RLR signaling modifier project, primary screen (AID 602276);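 further: firefly luciferase from ISG56 promoter only with Renilla not read in this screen; 0% = Sendai virus plus DMSO and 100% = medium plus DMSO without virus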
- Run conditions: HEK293 RL24 IRF3 luciferase reporter, at 10 µM, stronger effect = higher value
Outcome measure: inhibition (%)

>>> val("O=C(CSc1nnc(-c2ccccc2F)o1)OCc1ccccc1")
4.91
>>> val("CCCCCCc1ccc(-c2ncc(N)cn2)cc1")
-9.96
>>> val("O=C(Nc1cccc(F)c1)C1C2C=CC3(CN(CCCN4CCOCC4)C(=O)C13)O2 (stereo unspecified)")
-14.3
>>> val("CS(=O)(=O)N1CCCC(C(=O)N2CCOCC2)C1 (stereo unspecified)")
11.5
>>> val("CCOc1ccc(S(=O)(=O)NCC2CCCO2)c2cccnc12 (stereo unspecified)")
17.5
>>> val("COc1cccc(C2=Nn3c(nnc3-c3ccccc3O)SC2)c1")
6.36
>>> val("O=C(NCc1cccs1)c1cc2c(s1)CCCC2")
-44.6
>>> val("Cn1cccc1Cc1nnc(SCC(=O)NCc2ccc(F)cc2)n1-c1ccc(F)cc1")
-4.39
>>> val("Brc1ccccc1-c1nc(-c2ccccc2)no1")
-15.5
>>> val("O=C(Nc1ccc2c(c1)OCCO2)c1ccco1")
-48.4
>>> val("COc1ccc(CCn2c(-c3ccco3)nc3nc4ccccc4nc32)cc1")
18.8
>>> val("CCOC(=O)Cn1c(=N)n(CCOc2cccc(C)c2)c2ccccc21")
11.4
>>> val("CSc1ccccc1N=CC1=C(O)CC(C)(C)CC1=O")
5.59
>>> val("C=CCn1c(SCc2cccc(C#N)c2)nnc1-c1ccccc1O")
27.6
>>> val("Cc1ccc(NC(=O)C2CCCN(S(=O)(=O)c3cnc[nH]3)C2)cc1C (stereo unspecified)")
20.9
>>> val("CCOc1ccc2nc(NC(=O)CSc3nnnn3C3CCCCC3)sc2c1")
-4.95
>>> val("COc1cc2c(=O)nc3n(c2cc1OC)C(c1ccccc1)N=C(N)N3 (stereo unspecified)")
17.6
>>> val("Cc1nn(C)c(C)c1NC(=O)CSc1nc(Cc2ccccc2)nc2c1cnn2-c1ccccc1")
12
>>> val("CC1(C)CC(=O)C2=C(C1)NC(=O)CC2C(=O)NCc1ccc(F)cc1 (stereo unspecified)")
7.38
>>> val("c1ccc(CCn2nnnc2CN2CCN(C3CCCC3)CC2)cc1")
-0.279
>>> val("COCc1ccccc1Cn1cnc2c1c(=O)n(C)c(=O)n2C")
2.14

====

Property: nuclei count; scope: individual compounds
- Protocol notes: reduction of polyQ htt aggregates in cells – imaging, exon1htt(103Q)mCFP cells, high-content imaging, primary screen (AID 483);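 further: compound exposure lasted 3 days before fixation; percent of the per-plate median nuclei count of sample wells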
- Run conditions: exon1htt(103Q)mCFP cell line, aggregate imaging, at 2 µM; measured here: cell count, toxicity
Outcome measure: nuclei count

>>> val("Cc1csc(NC(=O)C(Cc2ccccc2)n2cccc2)n1 (stereo not given)")
"56.5%"
>>> val("CCOC(=O)Cn1nc(-c2ccc(Cl)cc2)cc1N")
"99.9%"
>>> val("CC(NS(=O)(=O)c1ccccc1)C(c1cccs1)N1CCN(C)CC1 (stereo not given)")
"111%"
>>> val("CCOc1ccc(N(CC(=O)NCc2cccc(OC)c2)S(=O)(=O)c2c(C)noc2C)cc1")
"95%"
>>> val("COc1ccc(NC(=O)CCc2nc(-c3ccccc3F)no2)cc1")
"94.6%"
>>> val("O=C(NCC1CCCO1)C1CCCN(S(=O)(=O)c2cccc3nsnc23)C1 (stereo not given)")
"122%"
>>> val("COC(=O)c1cn(NC(=O)c2cccnc2)c(=O)c2ccccc12")
"112%"
>>> val("CCCCn1cnc2c1c(=O)n(C)c(=O)n2C")
"101%"
>>> val("Cc1ccc2c(CNCc3ccco3)cc(=O)oc2c1")
"87.6%"
>>> val("O=S(=O)(NCC(c1cccnc1)N1CCN(c2ccccc2)CC1)c1cc(F)ccc1F (stereo not given)")
"51.3%"
>>> val("O=S(=O)(Cc1ccccc1)N1CCCCCC1")
"91%"
>>> val("O=C(Nc1ccccc1-c1ccccc1)NC1CCN(CC(=O)N2CCOCC2)CC1")
"113%"
>>> val("Clc1cccc(-c2nnc3sc(-c4ccccc4)nn23)c1")
"108%"
>>> val("CC1C(=O)C(C)C(c2cccs2)NC1c1cccs1 (stereo not given)")
"68.6%"
>>> val("COc1ccccc1OCC(=O)N1CCNC1=O")
"101%"
>>> val("COc1ccc(C)cc1S(=O)(=O)N1CCN(S(=O)(=O)c2cc(C)ccc2OC)CC1")
"97.4%"
>>> val("CSCCC(NS(=O)(=O)c1ccc2c(c1)oc(=O)n2C)C(=O)NC1CCCCC1 (stereo not given)")
"93%"
>>> val("CC(C)OC(=O)CSc1nnc(-c2ccc(C(C)(C)C)cc2)n1N")
"80.6%"
>>> val("Cc1nnc(SCc2cn3ccsc3n2)n(N)c1=O")
"105%"
>>> val("Cc1ccc(CN2C(=O)CCC2C(=O)NCCCN2CCC(C)CC2)cc1 (stereo not given)")
"85.5%"
